target: N-terminal CRD of hGalectin-4 (Gal-4N) (Homo sapiens, UniProt P56470); construct: N-terminal CRD of hGalectin-4 (amino acids 1–150, including an additional C-terminus His-Tag); His-Tag (C, cleaved yes); made in house; host or cells: E. coli BL21 (pET29b); assay: 1H Saturation Transfer Difference (STD) NMR epitope mapping; assay type: binding; conditions: 1H-residue H1Galα
Sequence (P56470 1-150): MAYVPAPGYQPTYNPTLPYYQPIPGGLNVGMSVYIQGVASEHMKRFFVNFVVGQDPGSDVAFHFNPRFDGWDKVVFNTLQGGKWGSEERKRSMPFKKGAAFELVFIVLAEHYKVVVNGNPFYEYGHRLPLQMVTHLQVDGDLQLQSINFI
Readout: STD-AF

# Compound, System name, STD-AF
records = [
    ("CC(=O)NC1C(OC2C(O)C(O)OC(CO)C2O)OC(CO)C(O)C1OC1OC(CO)C(O)C(OC2OC(CO)C(O)C(O)C2O)C1OC1OC(C)C(O)C(O)C1O (stereo not shown)", "N-terminal CRD of hGalectin-4 (Gal-4N) (Homo sapiens, UniProt P56470)", 0.0094),
]

a: CC(=O)N[C@@H]1[C@@H](O[C@@H]2O[C@H](CO)[C@H](O)[C@H](O[C@H]3O[C@H](CO)[C@H](O)[C@H](O)[C@H]3O)[C@H]2O[C@@H]2O[C@@H](C)[C@@H](O)[C@@H](O)[C@@H]2O)[C@H](O)[C@@H](CO)O[C@H]1O
b: CC1OC(OC2C(OC3C(CO)OC(O)C(O)C3O)OC(CO)C(O)C2OC2OC(CO)C(O)C(O)C2O)C(O)C(O)C1O (stereo not shown)
c: CC(=O)NC1C(O)OC(CO)C(OC2OC(CO)C(O)C(OC3OC(CO)C(O)C(O)C3O)C2OC2OC(C)C(O)C(O)C2O)C1O (stereo not shown)
Request: Task for the reader: rank each entry by its STD-AF, from the minimum upward. # the answer lists labels in the order requested
Result: a, c, b

Source: paper PMC8097242
